Numbers sourced from PubChem BioAssay.

System: Plasmodium falciparum Sir2 (PF13_0152, Sir2A)
Experiment: pfSir2 binders on small-molecule microarrays, primary screen, biochemical, small-molecule microarray, 635 nm fluorescence (AID 1098);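 also: score merges spot fluorescence intensity with its signal-to-noise ratio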
Conditions: small-molecule microarray binding, fluorescence 635 nm; higher = more signal
Measured composite z-score by item

Example cases with answers are listed next.
1) O=C1O[C@H](c2ccccc2)[C@H](c2ccccc2)N2[C@H]1[C@@H](C(=O)N1CCN(c3ncccn3)CC1)[C@]1(C(=O)Nc3ccccc31)[C@H]2c1ccc(O)cc1 = 0.612
2) COCCCNC(=O)[C@@]1(Sc2ccc(C)cc2)CC(=O)N(C2CCCCC2)[C@@H]1c1ccc(CO)cc1I = 1.06
3) CC(C)[C@@H](C(=O)O)n1cc(-c2ccccc2)nn1 = 0.377
4) CC(C)CNC(=O)[C@@H]1c2ccccc2C(=O)N(Cc2ccccc2Cl)[C@H]1c1ccc(CO)cc1 = 1.29
5) COc1cc(OC)c(C(O)C2C=CC3C(=O)N(c4ccccc4)C(=O)C3N2Nc2ccccc2F)cc1Br (stereo not drawn) = 0.76
6) C=C(CCCC)C(=O)CC[C@H](OC(=O)c1cccnc1)c1ccc(CO)o1 = 1.3
7) COCCOC(=O)N1C(=O)[C@@]2(c3cc(C#Cc4ccc(OC)cc4)ccc31)[C@H](c1ccc(OCCO)cc1)N1[C@H](c3ccccc3)[C@H](c3ccccc3)OC(=O)[C@H]1[C@@H]2C(=O)N1CCCCCCC1 = 1.7
8) [N-]=[N+]=NCc1ccccc1[C@@H]1OC(c2ccc(OCCCO)cc2)=N[C@]1(Cc1ccccc1)C(=O)NCc1ccccc1 = 0.869
9) CCOC(=O)C[C@H]1[C@H](OC(=O)Cc2ccc3c(c2)OCO3)[C@@H](NC(=O)c2ccccc2)c2cc(OCCCO)ccc2N1C(=O)Cc1ccc(OC)cc1 = -0.1
10) O=C1O[C@H](c2ccccc2)[C@H](c2ccccc2)N2[C@H]1[C@@H](C(=O)NC[C@H](O)c1ccccc1)[C@]1(C(=O)Nc3ccc(C#CCCO)cc31)[C@H]2c1ccccc1OCCO = 1.51

Task: Name the recorded composite z-score of the item `Cc1ccc(F)cc1S(=O)(=O)N[C@@H]1CCN(Cc2ccc3c(c2)OCO3)C1` in your answer.
Output: 0.0014

Task: Name the recorded composite z-score of the item `C/C=C/CN(C(=O)C#Cc1ccccc1)[C@H](CO[Si](C)(C)C(C)(C)C)c1ccccc1` in your answer.
Output: -0.435

Task: Name the recorded composite z-score of the item `[N-]=[N+]=Nc1ccccc1[C@@H]1OC(c2ccc(OCCCO)cc2)=N[C@]1(Cc1ccccc1)C(N)=O` in your answer.
Output: 0.807

Task: Name the recorded composite z-score of the item `[N-]=[N+]=NCc1ccccc1C[C@]1(C(=O)NCc2ccccc2)N=C(c2ccc(OCCCO)cc2)O[C@H]1c1ccccc1CN=[N+]=[N-]` in your answer.
Output: 1.03

Task: Name the recorded composite z-score of the item `Cc1ccc(S[C@]2(C(=O)NCCN3CCOCC3)CC(=O)N(C3CCCCC3)[C@@H]2c2ccc(CO)cc2I)cc1` in your answer.
Output: 0.567

Task: Name the recorded composite z-score of the item CC(C)C[C@@H]1NC(=O)C([C@@H](C)OCc2ccccc2)NC(=O)[C@@]23C(=O)N[C@@H](Cc4ccccc4)C2[C@H](C)[C@@]2(C)O[C@H]2C3/C=C/CC/C=C/CNC1=O (stereo partly drawn) in your answer.
Output: 1.38

* * *

Target: Concanavalin-A (Canavalia ensiformis) (UniProt P02866)
Sequence (P02866 whole entry, looked up): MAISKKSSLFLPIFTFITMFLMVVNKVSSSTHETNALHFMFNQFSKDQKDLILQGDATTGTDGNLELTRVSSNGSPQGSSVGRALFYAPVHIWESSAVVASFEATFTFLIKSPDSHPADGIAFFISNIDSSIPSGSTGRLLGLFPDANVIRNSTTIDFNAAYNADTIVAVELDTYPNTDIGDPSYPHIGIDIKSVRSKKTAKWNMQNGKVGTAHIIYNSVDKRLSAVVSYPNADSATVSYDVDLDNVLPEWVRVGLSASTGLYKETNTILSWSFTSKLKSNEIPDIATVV
Experiment: ConA small-molecule binders, primary screen, artefact control for SMM control protein annotation, biochemical, small-molecule microarray, Alexa647 label, 635 nm (AID 1127);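 also: z combines 667 nm emission intensity with signal-to-noise across three replicate slides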
Conditions: ConA-A647 binding fluorescence, higher = more signal
# label = label 1 if composite z-score >= 0.4 else label 0

1. CCCCCCCCCCC(O)C1C=CC2C(=O)N(C)C(=O)C2N1N1CCCCC1 (centres undefined) = label 0
2. O=C1OCCC=C[C@H]2OC34C=CCN(c5ccc(Cl)cc5)C(=O)[C@H]3N(CCO)C(=O)[C@@H]4C12 (some centres undefined) = label 0
3. CO[C@H]1O[C@H](CO)[C@@H](OC(=O)Nc2ccccc2)[C@@H]2OC(=O)[C@H](Cc3ccccc3)C/C=C/C[C@@H](Cc3ccccc3)C(=O)O[C@@H]12 = label 1
4. COc1ccc(C#Cc2ccc3c(c2)[C@]2(C(=O)N3)[C@H](C(=O)Nc3nc4ccccc4s3)[C@H]3C(=O)O[C@H](c4ccccc4)[C@H](c4ccccc4)N3[C@@H]2c2ccc(OCCO)cc2)cc1 = label 1
5. CC(C)CNC(=O)[C@@H]1c2ccccc2C(=O)N(C2Cc3ccccc3C2)[C@H]1c1ccc(CO)cc1 = label 0

Now, please, on to the next molecule.
Task: hey, is composite z-score for this one >= 0.4? CC[C@H](C)C(=O)O[C@H]1CC[C@]2(C)C3=C(CCC2C1(C)C)[C@]1(C)CC[C@H]([C@H](C)CCCC(C)C)[C@@]1(C)CC3 (some centres undefined)
Output: label 1

* * *

Measured z-score by item
Molecular target: NADPH oxidase 2 (Homo sapiens)
Test: NOX2-dependent H2O2 signal modulators, primary screen, NOX inhibitor project, cell-based, HEK293-NOX2, PMA-stimulated, Amplex Red fluorescence (AID 1159); also: test concentration not given here
Conditions: 45 min, higher = more signal, called active from +8 up or from −8 down
API note: the answer field is a bare number with no unit suffix.

Example cases with answers are listed next.
1. COCCOC(=O)N1C(=O)[C@@]2(c3cc(C#CC4=CCCCC4)ccc31)[C@H](c1ccccc1OCCO)N1[C@H](c3ccccc3)[C@H](c3ccccc3)OC(=O)[C@H]1[C@@H]2C(N)=O = 1.77
2. COc1ccc([Si](C)(C)[C@H]2[C@H](CC(=O)N3Cc4ccccc4C[C@H]3CO)O[C@@]3(C(=O)N(Cc4cccc(N5C(=O)c6cccc7cccc5c67)c4)c4ccccc43)[C@@H]2C)cc1 = -1.79
3. COC(=O)[C@@]1(CCC(=O)OC(C)(C)C)N=C(c2ccc(OCCCO)cc2)O[C@H]1c1ccccc1CN=[N+]=[N-] = -1.47

Task: Name the recorded z-score of the item `CC(=O)NCCCC[C@@H]1NC(=O)[C@H]2C[C@@H](C(=O)NCCCCCC[N+](C)(C)C)[C@@H](c3ccc(O)cc3)N2C1=O` in your answer.
Output: 0.834

Task: Name the recorded z-score of the item CCN(CC)c1ccc(N2CC=CC34O[C@@H]5C=CCOC(=O)[C@@H]5[C@H]3C(=O)N(CCCO)[C@@H]4C2=O)cc1 (some centres not stated) in your answer.
Output: -0.0266

Task: Name the recorded z-score of the item O=C1NC(=O)C2C1C=CC(C(O)c1cccc(O)c1)N2Nc1ccc(Cl)cc1Cl (configuration not stated) in your answer.
Output: -0.897

Task: Name the recorded z-score of the item `O=C(NCC(F)(F)F)[C@@H]1c2ccccc2C(=O)N(CC23CC4CC(CC(C4)C2)C3)[C@H]1c1ccc(CO)cc1` in your answer.
Output: 0.49

* * *

Molecular target: Torsin-1A (Homo sapiens)
Assay: torsin A binders from cell lysate, primary screen, small-molecule microarray, wild-type, 635/667 nm (AID 1149)
Conditions: COS7 hTOR1A-WT lysate, 635 nm fluorescence, higher = more signal
# label = bin(measured composite z-score), where bins are low class: < -0.2; middle class: ≥ -0.2 and < 0.3; high class: ≥ 0.3

The examples below pair each entry with its known result.
1. Cc1c(NC(=O)/C(C#N)=C/c2ccc(Cl)cc2)c(=O)n(-c2ccccc2)n1C = high class
2. COCCOC(=O)N1C(=O)[C@@]2(c3ccccc31)[C@H](C(=O)N1CCCCCCC1)[C@H]1C(=O)O[C@H](c3ccccc3)[C@H](c3ccccc3)N1[C@@H]2c1ccc(O)cc1 = high class
3. C=C(/C(=C/C[C@H](OC(=O)c1ccncc1)c1ccccc1OCCO)c1cc(C(=O)OC)ccc1OC)C(C)C = high class

Task: // return the class label for O=C1C2C=CC(C(O)c3ccc([N+](=O)[O-])cc3)N(Nc3ccccc3)C2C(=O)N1c1ccccc1 (configuration not stated)
Output: middle class

Task: // return the class label for CC(C)C[C@H]1NC(=O)[C@@]23C(=O)N[C@@H](Cc4ccccc4)C2[C@H](C)[C@@]2(C)O[C@H]2C3/C=C/C/C=C\CNC(=O)[C@@H]2CCCN2C1=O (some centres not stated)
Output: middle class

Task: // return the class label for O=C1C2C=CC(C(O)c3cccs3)N(Nc3ccccc3)C2C(=O)N1c1ccccc1 (configuration not stated)
Output: low class

Task: // return the class label for `Cc1ccc(S[C@]2(C(=O)NC3CC3)CC(=O)N(Cc3cc(C(F)(F)F)cc(C(F)(F)F)c3)[C@@H]2c2ccc(CO)cc2I)cc1`
Output: low class

Task: // return the class label for C=CCC(OC(C)=O)[C@@H]1[C@@H](N(Cc2ccc(-c3ccccc3)cc2)C(=O)c2ccc(-c3ccccc3)cc2)c2cc(OCCCO)ccc2N1C(=O)c1ccc2ccccc2n1 (some centres not stated)
Output: middle class

Task: // return the class label for CC(=O)n1cc(C(O)C2C=CC3C(=O)N(c4ccccc4)C(=O)C3N2Nc2ccccc2F)c2ccccc21 (configuration not stated)
Output: low class
